STUDY_SYSTEM: human Mas receptor (Homo sapiens)
Construct: expressed in transfected cells; host or cells: HEK293 (ATCC CRL-1573)
Sequence (P04201 whole entry): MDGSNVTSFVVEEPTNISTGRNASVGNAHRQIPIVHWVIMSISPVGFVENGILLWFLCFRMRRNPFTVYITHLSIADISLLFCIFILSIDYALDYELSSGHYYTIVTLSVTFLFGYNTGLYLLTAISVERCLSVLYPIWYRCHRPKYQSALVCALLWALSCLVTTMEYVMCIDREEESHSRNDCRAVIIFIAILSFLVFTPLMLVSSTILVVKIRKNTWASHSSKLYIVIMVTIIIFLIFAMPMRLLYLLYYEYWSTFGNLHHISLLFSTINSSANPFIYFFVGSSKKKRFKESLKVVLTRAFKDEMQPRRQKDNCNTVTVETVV
TEST_DETAILS: HTRF IP1 assay, HEK293 cells expressing human Mas receptor
Type: cell-based
PROTOCOL_CONDITIONS: HTRF IP1 assay, human Mas receptor (Table B.2); read-out: IC50
TRUE if IC50 is below 60 nM. FALSE if not; exact matches included in FALSE.

Task item: Does this compound meet the criterion IC50 < 60 nM? O=C(Nc1ccc(Cl)cc1N1CCN(CCC(F)(F)F)CC1)c1ccc2c(c1)CN(C(=O)c1cccnc1)CC2 [Compound 259]
Reply: FALSE

Task item: Does this compound meet the criterion IC50 < 60 nM? O=C(Nc1ccc(Cl)cc1N1CCN(CCC(F)(F)F)CC1)c1ccc(CN(CCO)CCO)c(F)c1F [Compound 178]
Reply: TRUE

Task item: Does this compound meet the criterion IC50 < 60 nM? O=C(O)CNCc1ccc(C(=O)Nc2ccc(Cl)cc2N2CCN(CCC(F)(F)F)CC2)c(F)c1F [Compound 202]
Reply: FALSE

Task item: Does this compound meet the criterion IC50 < 60 nM? O=C(Nc1cc(Cl)c(Cl)cc1N1CCN(CCC(F)(F)F)CC1)c1ccc(CN2CCS(=O)(=O)CC2)c(F)c1F [Compound 186]
Reply: TRUE

Task item: Does this compound meet the criterion IC50 < 60 nM? CC(C)(C)CCN1CCc2ccc(C(=O)Nc3ccc(Cl)cc3N3CCN(CCC(F)(F)F)CC3)cc2C1 [Compound 17]
Reply: FALSE

Task item: Does this compound meet the criterion IC50 < 60 nM? O=C(O)C[C@H]1CNCCN1Cc1ccc(C(=O)Nc2ccc(Cl)cc2N2CCN(CCC(F)(F)F)CC2)c(F)c1F [Compound 231]
Reply: FALSE

Task item: Does this compound meet the criterion IC50 < 60 nM? N#CCCNCc1ccc(C(=O)Nc2ccc(Cl)cc2N2CCN(CCC(F)(F)F)CC2)c(F)c1F [Compound 235]
Reply: TRUE

Task item: Does this compound meet the criterion IC50 < 60 nM? NC1(C(=O)NCc2ccc(C(=O)Nc3ccc(Cl)cc3N3CCN(CCC(F)(F)F)CC3)c(F)c2F)CCSCC1 [Compound 284]
Reply: TRUE

Task item: Does this compound meet the criterion IC50 < 60 nM? NC(=O)[C@H](CO)NCc1ccc(C(=O)Nc2ccc(Cl)cc2N2CCN(CCC(F)(F)F)CC2)c(F)c1 [Compound 76]
Reply: FALSE

Task item: Does this compound meet the criterion IC50 < 60 nM? NCc1ccc(C(=O)Nc2ccc(Cl)cc2N2CCN(CCC(F)(F)F)CC2)c(F)c1 [Compound 26]
Reply: FALSE

Task item: Does this compound meet the criterion IC50 < 60 nM? NC(=O)[C@H](CO)NCc1ccc(C(=O)Nc2ccc(Cl)cc2N2CCN(CCC(F)(F)F)CC2)c(F)c1F [Compound 170]
Reply: TRUE

Task item: Does this compound meet the criterion IC50 < 60 nM? NC(=O)[C@@H](COP(=O)(O)O)NCc1ccc(C(=O)Nc2ccc(Cl)cc2N2CCN(CCC(F)(F)F)CC2)c(F)c1F [Compound 250]
Reply: TRUE

Task item: Does this compound meet the criterion IC50 < 60 nM? O=C(O)CC1CNCCN1Cc1ccc(C(=O)Nc2ccc(Cl)cc2N2CCN(CCC(F)(F)F)CC2)c(F)c1F (stereo not shown) [Compound 226]
Reply: FALSE

Task item: Does this compound meet the criterion IC50 < 60 nM? O=C(O)CCC(=O)NCc1ccc(C(=O)Nc2ccc(Cl)cc2N2CCN(CCC(F)(F)F)CC2)c(F)c1F [Compound 293]
Reply: FALSE

Task item: Does this compound meet the criterion IC50 < 60 nM? NC(=O)CCN1CCc2ccc(C(=O)Nc3ccc(Cl)cc3N3CCN(CCC(F)(F)F)CC3)cc2C1 [Compound 20]
Reply: FALSE

Task item: Does this compound meet the criterion IC50 < 60 nM? O=C(Nc1ccc(Cl)cc1N1CCN(CCC(F)(F)F)CC1)c1ccc(CNC(=O)[C@H]2CC[C@@H](O)CC2)c(F)c1F [Compound 330]
Reply: TRUE

Task item: Does this compound meet the criterion IC50 < 60 nM? O=C(Nc1ccc(Cl)cc1N1CCN(CCC(F)(F)F)CC1)c1ccc(CN2C(=O)CNC2=O)c(F)c1F [Compound 428]
Reply: FALSE

Task item: Does this compound meet the criterion IC50 < 60 nM? O=C1CN(Cc2ccc(C(=O)Nc3ccc(Cl)cc3N3CCN(CCC(F)(F)F)CC3)c(F)c2F)CCN1 [Compound 167]
Reply: TRUE

Task item: Does this compound meet the criterion IC50 < 60 nM? O=C(Nc1ccc(Cl)cc1N1CCN(CCC(F)(F)F)CC1)c1ccc(CNC(=O)[C@H]2CC[C@@H](OP(=O)(O)O)CC2)c(F)c1F [Compound 392]
Reply: TRUE

Task item: Does this compound meet the criterion IC50 < 60 nM? O=C(Nc1ccc(Cl)cc1N1CCN(CCC(F)(F)F)CC1)c1ccc2c(c1)CNCC2 [Compound 13]
Reply: FALSE

Task item: Does this compound meet the criterion IC50 < 60 nM? O=C(Nc1ccc(Cl)cc1N1CCN(CCC(F)(F)F)CC1)c1ccc(CNCc2nn[nH]n2)c(F)c1F [Compound 200]
Reply: TRUE

Task item: Does this compound meet the criterion IC50 < 60 nM? NC(=O)[C@@H]1CCCN1Cc1ccc(C(=O)Nc2ccc(Cl)cc2N2CCN(CCC(F)(F)F)CC2)c(F)c1 [Compound 56]
Reply: TRUE
